- System: Streptococcus sp.
- EXPERIMENT_NOTES: in vitro antibacterial evaluation, MIC by broth dilution
- Type: cell-based
- CONDITION_DETAILS: broth dilution, 18 hours at 35° C.; strain ATCC 6301
Numbered stars: 1 amine (or outer) side, 2 acyl side, 3 side chain; on linkers, the order of the positions; unused ones are H or OH. Square brackets hold non-standard residues; d marks the D form. Peptide text beside a SMILES is read from it. * marks the point of attachment. ξ: configuration not given here. X6 = N=C1NCC(CC(N[*:1])C(=O)[*:2])N1C1OC(CO)C(O)C(O)C1O; ξEnduracididine(βξ-OH,4'ξ) = N=C1NCC(C(O)C(N)C(=O)O)N1; X2 = OCC1OC(OC2C(CO)OC(*)C(O)C2O)C(O)C(O)C1O; ξPhe(βξ-Me) = CC(c1ccccc1)C(N)C(=O)O
Below: a set of entries, each annotated with reported MIC Streptococcus pneumoniae (ATCC 6301).

Worked examples follow.
MOLECULE	MIC Streptococcus pneumoniae (ATCC 6301)
CC(c1ccccc1)C1NC(=O)CNC(=O)C(CO)NC(=O)C(C(O)C2CNC(=N)N2C2OC(CO)C(O)C(O)C2O)NC(=O)C(C(O)C2CNC(=N)N2)NC(=O)C(Cc2ccc(OC3OC(CO)C(OC4OC5COC(C67CC8CC(CC(C8)C6)C7)OC5C(O)C4O)C(O)C3O)cc2)NC1=O (stereo not drawn)	<0.12 µg/mL
CN=C1N(C)CC(C(O)C2NC(=O)C(Cc3ccc(OC4OC(CO)C(OC5OC(CO)C(O)C(O)C5O)C(O)C4O)cc3)NC(=O)C(C(C)c3ccccc3)NC(=O)CNC(=O)C(CO)NC(=O)C(C(O)C3CN(C)C(=NC)N3C3OC(CO)C(O)C(O)C3O)NC2=O)N1C (stereo not drawn)	>128 µg/mL

Item CC(c1ccccc1)C1NC(=O)CNC(=O)C(CO)NC(=O)C(CC2CNC(=N)N2C2OC(CO)C(O)C(O)C2O)NC(=O)C(C(O)C2CNC(=N)N2)NC(=O)C(Cc2ccc(OC3OC(CO)C(OC4OC(CO)C(O)C(O)C4O)C(O)C3O)cc2)NC1=O (stereo not drawn) [Example 284b] (cyclo(G[ξPhe(βξ-Me)]Y(X2)[ξEnduracididine(βξ-OH,4'ξ)][X6]S); configuration not given here) with Streptococcus sp. - MIC Streptococcus pneumoniae (ATCC 6301)?
>128 µg/mL

* * *

- System: Enterococcus sp.
- EXPERIMENT_NOTES: in vitro antibacterial evaluation, MIC by broth dilution
- Format: cell-based
- CONDITION_DETAILS: Enterococcus faecalis (GC 4553); broth dilution, 18 hours at 35° C.
REPORTED_PROPERTY: MIC Enterococcus faecalis (GC 4553) (µg/mL)
Please state the figure in µg/mL; there is no need to write the unit.

Before answering, review these 2 worked examples.
COMPOUND	MIC Enterococcus faecalis (GC 4553), µg/mL
CC(c1ccccc1)C1NC(=O)CNC(=O)C(CO)NC(=O)C(C(O)C2CN(Cc3ccc(C(C)(C)C)cc3)C(=N)N2C2OC(CO)C(O)C(O)C2O)NC(=O)C(C(O)C2CNC(=N)N2)NC(=O)C(Cc2ccc(OC3OC(CO)C(OC4OC5COC6(OC5C(O)C4O)C4CC5CC(C4)CC6C5)C(O)C3O)cc2)NC1=O (stereo not shown) [Example 77]	8
CC(C)=CCCC(C)CC1OCC2OC(OC3C(CO)OC(Oc4ccc(CC5NC(=O)C(C(C)c6ccccc6)NC(=O)CNC(=O)C(CO)NC(=O)C(C(O)C6CNC(=N)N6C6OC(CO)C(O)C(O)C6O)NC(=O)C(C(O)C6CNC(=N)N6)NC5=O)cc4)C(O)C3O)C(O)C(O)C2O1 (stereo not shown) [Example 126]	8

Query compound follows.
Query (compound): COc1cc(OC)cc(C2OCC3OC(OC4C(CO)OC(Oc5ccc(CC6NC(=O)C(C(C)c7ccccc7)NC(=O)CNC(=O)C(CO)NC(=O)C(C(O)C7CNC(=N)N7C7OC(CO)C(O)C(O)C7O)NC(=O)C(C(O)C7CNC(=N)N7)NC6=O)cc5)C(O)C4O)C(O)C(O)C3O2)c1 (stereo not shown) [Example 150] ; field requested: MIC Enterococcus faecalis (GC 4553)
8

* * *

In this section we review reported MIC Enterococcus avium (GC 4558) values for a set of compounds.
- Tested on: Enterococcus sp.
- EXPERIMENT_NOTES: in vitro antibacterial evaluation, MIC by broth dilution
- Type: cell-based
- CONDITION_DETAILS: broth dilution, inoculum 5×10^5 CFU/mL, 18 hours at 35° C.; strain GC 4558
Answer with a number only, understood to be in mg/L.

Record lookup: for Enterococcus sp., what MIC Enterococcus avium (GC 4558) belongs to CC(c1ccccc1)C1NC(=O)CNC(=O)C(CO)NC(=O)C(C(O)C2CNC(=N)N2C2OC(CO)C(O)C(O)C2O)NC(=O)C(C(O)C2CNC(=N)N2)NC(=O)C(Cc2ccc(OC3OC(CO)C(OC4OC5COC6(CCCCC6)OC5C(O)C4O)C(O)C3O)cc2)NC1=O (centres unmarked) ?
8

* * *

- Tested on: Enterococcus sp.
- EXPERIMENT_NOTES: in vitro antibacterial evaluation, MIC by broth dilution
- Type: cell-based
- CONDITION_DETAILS: broth dilution, 18 hours at 35° C.
REPORTED_PROPERTY: MIC Enterococcus avium (GC 4558) (µg/mL)
Please respond with the number in µg/mL and leave the unit unwritten.

# annotated cases, reported MIC Enterococcus avium (GC 4558) shown
MOLECULE	UOM	MIC Enterococcus avium (GC 4558)
N=C1NCC(C(O)C2NC(=O)C(Cc3ccc(OC4OC(CO)C(OC5OC6COC(CCc7ccccc7)OC6C(O)C5O)C(O)C4O)cc3)NC(=O)C(CC3CCCCC3)NC(=O)CNC(=O)C(CO)NC(=O)C(C(O)C3CNC(=N)N3C3OC(CO)C(O)C(O)C3O)NC2=O)N1 (centres unmarked) [Example 198]	µg/mL	1
CC(c1ccccc1)C1NC(=O)CNC(=O)C(CO)NC(=O)C(C(O)C2CNC(=N)N2C2OC(CO)C(O)C3OC(C)(C)OC32)NC(=O)C(C(O)C2CNC(=N)N2)NC(=O)C(Cc2ccc(OC3OC(CO)C(OC4OC(CO)C(O)C5OC(C)(C)OC45)C4OC(C)(C)OC34)cc2)NC1=O (centres unmarked) [Example 229a]	µg/mL	128

Next up:
Lab request: please report MIC Enterococcus avium (GC 4558) under test system Enterococcus sp. for CC(C1CCCCC1)C1NC(=O)CNC(=O)C(CO)NC(=O)C(C(O)C2CNC(=N)N2C2OC(CO)C(O)C(O)C2O)NC(=O)C(C(O)C2CNC(=N)N2)NC(=O)C(Cc2ccc(OC3OC(CO)C(OC4OC5COC(c6ccccc6)OC5C(O)C4O)C(O)C3O)cc2)NC1=O (centres unmarked) [Example 201]
1

* * *

- Test system: Enterococcus sp.
- EXPERIMENT_NOTES: in vitro antibacterial evaluation, MIC by broth dilution
- Assay type: cell-based
- CONDITION_DETAILS: strain GC 2691; broth dilution, 18 hours at 35° C.
# Lookup of reported MIC Enterococcus faecalis (GC 2691) keyed by entry

COMPOUND	TESTED_TARGET	MIC Enterococcus faecalis (GC 2691)
Cc1ccc(OC(=O)Nc2cc(CC3NC(=O)C(C(C)c4ccccc4)NC(=O)CNC(=O)C(CO)NC(=O)C(C(O)C4CNC(=N)N4C4OC(CO)C(O)C(O)C4O)NC(=O)C(C(O)C4CNC(=N)N4)NC3=O)ccc2O)cc1 (stereo not drawn)	Enterococcus sp.	>128 µg/mL
CC(c1ccccc1)C1NC(=O)CNC(=O)C(CO)NC(=O)C(C(O)C2CNC(=N)N2C2OC(CO)C(O)C(O)C2O)NC(=O)C(C(O)C2CNC(=N)N2)NC(=O)C(Cc2ccc(OC3OC(CO)C(OC4OC5COC(c6ccc(S(C)(=O)=O)cc6)OC5C(O)C4O)C(O)C3O)cc2)NC1=O (stereo not drawn)	Enterococcus sp.	>64 µg/mL

Consider the additional compound presented here.
What value of measured MIC Enterococcus faecalis (GC 2691) is listed for CC(c1ccccc1)C1NC(=O)CNC(=O)C(CO)NC(=O)C(C(O)C2CNC(=N)N2C2OC(CO)C(O)C(O)C2O)NC(=O)C(C(O)C2CNC(=N)N2)NC(=O)C(Cc2ccc(OC3OC(CO)C(OC4OC5COC(c6ccc(C(=O)O)cc6)OC5C(O)C4O)C(O)C3O)cc2)NC1=O (stereo not drawn) ?
>64 µg/mL

* * *

- System: Enterococcus sp.
- EXPERIMENT_NOTES: in vitro antibacterial evaluation, MIC by broth dilution
- Type: cell-based
- CONDITION_DETAILS: broth dilution, 18 hours at 35° C.; strain GC 2242
# MIC Enterococcus faecalis (GC 2242) per record follows

COMPOUND	MIC Enterococcus faecalis (GC 2242)
CC(c1ccc(F)cc1)C1NC(=O)CNC(=O)C(CO)NC(=O)C(C(O)C2CNC(=N)N2C2OC(CO)C(O)C(O)C2O)NC(=O)C(C(O)C2CNC(=N)N2)NC(=O)C(Cc2ccc(OC3OC(CO)C(OC4OC(CO)C(O)C(O)C4O)C(O)C3O)cc2)NC1=O (stereo not drawn) [Example 261a]	>64 µg/mL

Can you look up the measured MIC Enterococcus faecalis (GC 2242) of CC(c1ccccc1)C1NC(=O)CNC(=O)C(CO)NC(=O)C(C(O)C2CN(Cc3ccc(-c4ccccc4)cc3)C(=N)N2C2OC(CO)C(O)C(O)C2O)NC(=O)C(C(O)C2CNC(=N)N2)NC(=O)C(Cc2ccc(OC3OC(CO)C(OC4OC(CO)C(O)C(O)C4O)C(O)C3O)cc2)NC1=O (stereo not drawn) [Example 66a] for me?
>128 µg/mL

Repeat with CC(c1ccccc1)C1NC(=O)CNC(=O)C(CO)NC(=O)C(C(O)C2CN(c3ncccn3)C(=N)N2C2OC(CO)C(O)C(O)C2O)NC(=O)C(C(O)C2CNC(=Nc3ncccn3)N2)NC(=O)C(Cc2ccc(OC3OC(CO)C(OC4OC(CO)C(O)C(O)C4O)C(O)C3O)cc2)NC1=O (stereo not drawn) [Example 92]
>128 µg/mL
